# Target or system: Elastase from human neutrophils (Homo sapiens)
# Sequence (P08246 30-267): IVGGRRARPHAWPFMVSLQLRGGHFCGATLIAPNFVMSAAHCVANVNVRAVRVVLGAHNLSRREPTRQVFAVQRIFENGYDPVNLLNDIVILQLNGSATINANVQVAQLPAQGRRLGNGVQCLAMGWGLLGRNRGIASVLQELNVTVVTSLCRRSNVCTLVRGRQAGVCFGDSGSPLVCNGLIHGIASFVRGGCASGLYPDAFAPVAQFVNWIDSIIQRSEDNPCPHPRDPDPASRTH
# Measurement notes: Enzymatic assay, elastase
# Condition context: Elastase IC50
pIC50: −log10 of the molar value. Where a SMILES comes first, the peptide text is derived from it.
Attribute: pIC50
Measured endpoint: pIC50

Compound: CCCCCCCC[C@@H]1NC(=O)[C@@H]2CCCN2C(=O)[C@H]2CCCN2C(=O)[C@H](CCC(N)=O)NC(=O)[C@@H]2CSSC[C@H](NC1=O)C(=O)N[C@@H]([C@@H](C)O)C(=O)N[C@@H](C)C(=O)N[C@@H](CO)C(=O)N[C@@H]([C@@H](C)CC)C(=O)N1CCC[C@H]1C(=O)N1CCC[C@H]1C(=O)N[C@@H](CCC(N)=O)C(=O)N2 [Ex. 149] (HELM PEPTIDE1{[CCCCCCCC[C@H](N[*:1])C(=O)[*:2]].C.T.A.S.I.P.P.Q.C.Q.[dP].P}$PEPTIDE1,PEPTIDE1,2:R3-10:R3|PEPTIDE1,PEPTIDE1,1:R1-13:R2$$$V2.0)
Modifier sign: =
Value: 7.96
//
Compound: CCCC[C@@H]1NC(=O)[C@@H]2CCCN2C(=O)[C@H]2CCCN2C(=O)[C@H](Cc2ccc(O)cc2)NC(=O)[C@@H]2CSSC[C@H](NC1=O)C(=O)N[C@@H]([C@@H](C)O)C(=O)N[C@@H](CCCCN)C(=O)N[C@@H](CO)C(=O)N[C@@H](CC(=O)O)C(=O)N1CCC[C@H]1C(=O)N1CCC[C@H]1C(=O)N[C@@H]([C@@H](C)CC)C(=O)N2 [Ex. 44] (HELM PEPTIDE1{[Nle].C.T.K.S.D.P.P.I.C.Y.[dP].P}$PEPTIDE1,PEPTIDE1,2:R3-10:R3|PEPTIDE1,PEPTIDE1,1:R1-13:R2$$$V2.0)
Modifier sign: <
Value: 5.00
//
Compound: CCCC[C@@H]1NC(=O)[C@@H]2CCCN2C(=O)[C@H]2CCCN2C(=O)[C@H](CC2CCCCC2)NC(=O)[C@@H]2CSSC[C@H](NC1=O)C(=O)N[C@@H]([C@@H](C)O)C(=O)N[C@@H](C)C(=O)N[C@@H](CO)C(=O)N[C@@H]([C@@H](C)CC)C(=O)N1CCC[C@H]1C(=O)N1CCC[C@H]1C(=O)N[C@@H](CCC(N)=O)C(=O)N2 [Ex. 97] (HELM PEPTIDE1{[Nle].C.T.A.S.I.P.P.Q.C.[Cha].[dP].P}$PEPTIDE1,PEPTIDE1,2:R3-10:R3|PEPTIDE1,PEPTIDE1,1:R1-13:R2$$$V2.0)
Modifier sign: =
Value: 7.62
//
Compound: CC[C@H](C)[C@@H]1NC(=O)[C@H](CO)NC(=O)[C@H](C)NC(=O)[C@H]([C@@H](C)O)NC(=O)[C@@H]2CSSC[C@H](NC(=O)[C@H](CCC(N)=O)NC(=O)[C@@H]3CCCN3C(=O)[C@@H]3CCCN3C1=O)C(=O)N[C@@H](CCC(N)=O)C(=O)N1CCC[C@@H]1C(=O)N1CCC[C@H]1C(=O)N[C@@H](CCc1ccccc1)C(=O)N2 [Ex. 143] (HELM PEPTIDE1{[O=C([C@H](CCc1ccccc1)N[*:1])[*:2]].C.T.A.S.I.P.P.Q.C.Q.[dP].P}$PEPTIDE1,PEPTIDE1,2:R3-10:R3|PEPTIDE1,PEPTIDE1,1:R1-13:R2$$$V2.0)
Modifier sign: =
Value: 7.82
//
Compound: CCCC[C@@H]1NC(=O)[C@H]([C@@H](C)O)NC(=O)[C@@H](Cc2ccccc2)NC(=O)[C@H](Cc2ccc(O)cc2)NC(=O)[C@@H]2CSSC[C@H](NC1=O)C(=O)N[C@@H]([C@@H](C)O)C(=O)N[C@@H](C)C(=O)N[C@@H](CO)C(=O)N[C@@H]([C@@H](C)CC)C(=O)N1CCC[C@H]1C(=O)N1CCC[C@H]1C(=O)N[C@@H](CCC(N)=O)C(=O)N2 [Ex. 128] (HELM PEPTIDE1{A.S.I.P.P.Q.C.Y.[dF].T.[Nle].C.T}$PEPTIDE1,PEPTIDE1,7:R3-12:R3|PEPTIDE1,PEPTIDE1,1:R1-13:R2$$$V2.0)
Modifier sign: =
Value: 7.40
//
Compound: CCCC[C@@H]1NC(=O)[C@H](C(C)C)NC(=O)[C@H]2CCCN2C(=O)[C@H](Cc2ccc(O)cc2)NC(=O)[C@@H]2CSSC[C@H](NC1=O)C(=O)N[C@@H]([C@@H](C)O)C(=O)N[C@@H](C)C(=O)N[C@@H](CO)C(=O)N[C@@H]([C@@H](C)CC)C(=O)N1CCC[C@H]1C(=O)N1CCC[C@H]1C(=O)N[C@@H](CCC(N)=O)C(=O)N2 [Ex. 125] (HELM PEPTIDE1{[Nle].C.T.A.S.I.P.P.Q.C.Y.[dP].V}$PEPTIDE1,PEPTIDE1,2:R3-10:R3|PEPTIDE1,PEPTIDE1,1:R1-13:R2$$$V2.0)
Modifier sign: =
Value: 7.82
//
Compound: CCCC[C@@H]1NC(=O)[C@H](CCC(N)=O)NC(=O)[C@@H](CCC(N)=O)NC(=O)[C@H](CC2CCCCC2)NC(=O)[C@@H]2CSSC[C@H](NC1=O)C(=O)N[C@@H]([C@@H](C)O)C(=O)N[C@@H](C)C(=O)N[C@@H](CO)C(=O)N[C@@H](CC1CCCCC1)C(=O)N1CCC[C@H]1C(=O)N1CCC[C@H]1C(=O)N[C@@H](CCC(N)=O)C(=O)N2 [Ex. 171] (HELM PEPTIDE1{[Nle].C.T.A.S.[Cha].P.P.Q.C.[Cha].[dQ].Q}$PEPTIDE1,PEPTIDE1,2:R3-10:R3|PEPTIDE1,PEPTIDE1,1:R1-13:R2$$$V2.0)
Modifier sign: =
Value: 7.89
//
Compound: C[C@@H]1NC(=O)[C@H]([C@@H](C)O)NC(=O)[C@@H]2CSSC[C@H](NC(=O)[C@H](CCC(N)=O)NC(=O)[C@@H]3CCCN3C(=O)[C@@H]3CCCN3C(=O)[C@H](CC3CCCCC3)NC(=O)[C@H](CO)NC1=O)C(=O)N[C@@H](Cc1ccccc1)C(=O)N1CCC[C@@H]1C(=O)N1CCC[C@H]1C(=O)N[C@@H](CCc1ccccc1)C(=O)N2 [Ex. 155] (HELM PEPTIDE1{[O=C([C@H](CCc1ccccc1)N[*:1])[*:2]].C.T.A.S.[Cha].P.P.Q.C.F.[dP].P}$PEPTIDE1,PEPTIDE1,2:R3-10:R3|PEPTIDE1,PEPTIDE1,1:R1-13:R2$$$V2.0)
Modifier sign: =
Value: 8.09
